Ki values for the compounds below.
Biological target: USP7 (Homo sapiens, UniProt Q93009, C315A)
Construct: 0.25 nM His-His-USP7 (aa208-560, |C315A|) was incubated with compound; His-His (N)
Sequence (Q93009 208-560 C315A): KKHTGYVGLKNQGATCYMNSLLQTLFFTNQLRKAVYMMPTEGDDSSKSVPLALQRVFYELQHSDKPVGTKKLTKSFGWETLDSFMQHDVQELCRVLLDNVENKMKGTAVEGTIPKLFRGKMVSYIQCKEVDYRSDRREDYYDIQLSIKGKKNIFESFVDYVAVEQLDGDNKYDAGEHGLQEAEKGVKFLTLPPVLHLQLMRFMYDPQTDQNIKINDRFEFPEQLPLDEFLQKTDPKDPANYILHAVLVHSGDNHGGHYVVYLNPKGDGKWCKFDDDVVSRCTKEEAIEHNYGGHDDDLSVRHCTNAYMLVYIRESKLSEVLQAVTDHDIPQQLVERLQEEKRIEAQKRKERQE
Experiment: Inhibition of USP7 by Fluorescence Intensity (FLINT) readings, Ubiquitin-Rhodamine-110 substrate
Assay type: biochemical
Details: 0.25 nM His-His-USP7 (aa208-560), 60 minutes at 30° C. preincubation; Ki determined from IC50 according to Cer et al.
State just the number; it will be interpreted in nM.

Examples with their reported Ki follow.
INSERT INTO results (compound_string, measurement) VALUES
  ('Nc1c(Oc2ccc(F)cc2)ncn(CC2(O)CCN(C(=O)[C@@H]3CCN(S(=O)(=O)c4ccc(-c5cccs5)s4)C[C@H]3c3ccccc3)CC2)c1=O', 123),
  ('Cc1nc(-c2ccc(N(C)C)nc2)sc1C(=O)N1CC[C@@H](C(=O)N2CCC(O)(Cn3cnc(Oc4cccc(C(F)(F)F)c4)c(N)c3=O)CC2)[C@H](c2ccccc2)C1', 4.44),
  ('COc1ccc(NC(=O)N2CC[C@@H](C(=O)N3CCC(O)(Cn4cnc(Oc5ccc(F)cc5)c(N)c4=O)CC3)[C@H](c3ccccc3)C2)cc1', 19),
  ('Nc1c(Oc2ccc(F)cc2)ncn(CC2(O)CCN(C(=O)[C@@H]3CCN(C(=O)Nc4ccccc4)C[C@H]3c3ccccc3)CC2)c1=O', 17);

For the compound "Cc1ccc(-c2nccc(CN3CC[C@@H](C(=O)N4CC[C@](O)(Cn5cnc(Oc6ccc(F)cc6)c(N)c5=O)C(F)(F)C4)[C@H](c4ccccc4)C3)n2)cn1" , what Ki is on record? 3.2

----------
Target: USP7 (Homo sapiens, UniProt Q93009, C315A)
Construct: 0.25 nM His-His-USP7 (aa208-560, |C315A|) was incubated with compound; His-His (N)
Assay: Inhibition of USP7 by Fluorescence Intensity (FLINT) readings, Ubiquitin-Rhodamine-110 substrate
Assay type: biochemical
Conditions: 0.25 nM His-His-USP7 (aa208-560), 60 minutes at 30° C. preincubation; Ki determined from IC50 according to Cer et al.
PROPERTY LABEL: log10 of Ki (log10 of the value in nM)
Heads up, the numbers here are log10 of Ki in nM units.

Examples with their reported log10 of Ki follow.
INSERT INTO results (compound, measurement) VALUES
  ('Cc1ccnc(CN2CC[C@@H](C(=O)N3CC[C@](O)(Cn4cnc(Oc5ccc(F)cc5)c(N)c4=O)C(F)(F)C3)[C@H](c3ccccc3)C2)n1', 1.55),
  ('Nc1c(Oc2ccc(F)cc2)ncn(C[C@@]2(O)CCN(C(=O)[C@@H]3CCN(Cc4ccncn4)C[C@H]3c3ccccc3)CC2(F)F)c1=O', 1.53),
  ('Nc1c(Oc2ccc(F)cc2)ncn(C[C@@]2(O)CCN(C(=O)[C@@H]3CCN(Cc4cccnn4)C[C@H]3c3ccccc3)CC2(F)F)c1=O', 1.67),
  ('Nc1c(Oc2cccc(C(F)(F)F)c2)ncn(CC2(O)CCN(C(=O)[C@@H]3CCN(C(=O)c4sc(I)cc4F)C[C@H]3c3ccccc3)CC2)c1=O', 1.75),
  ('Cc1nccc(CN2CC[C@@H](C(=O)N3CC[C@](O)(Cn4cnc(Oc5cccc(C(F)(F)F)c5)c(N)c4=O)C(F)(F)C3)[C@H](c3ccccc3)C2)n1', 1.62);

For the compound "Nc1c(Oc2ccc(F)cc2)ncn(CC2(O)CCN(C(=O)[C@@H]3CCN(C(=O)Nc4ccccc4F)C[C@H]3c3ccccc3)CC2)c1=O" , what log10 of Ki is on record? 1.30

For the compound "Cc1ccc(-c2cc(F)c(C(=O)N3CC[C@@H](C(=O)N4CCC(O)(Cn5cnc(Oc6ccc(F)cc6)c(N)c5=O)CC4)[C@H](c4ccccc4)C3)s2)cn1" , what log10 of Ki is on record? 0.62

For the compound "Nc1c(Oc2ccc(F)cc2)ncn(CC2(O)CCN(C(=O)[C@@H]3CCN(C(=O)c4cncc(C(F)(F)F)c4)C[C@H]3c3ccccc3)CC2)c1=O" , what log10 of Ki is on record? 1.13

----------
Target: USP7 (Homo sapiens, UniProt Q93009, C315A)
Construct: 0.25 nM His-His-USP7 (aa208-560, |C315A|) was incubated with compound; His-His (N)
Assay: Inhibition of USP7 by Fluorescence Intensity (FLINT) readings, Ubiquitin-Rhodamine-110 substrate
Format: biochemical
Settings: 0.25 nM His-His-USP7 (aa208-560), 60 minutes at 30° C. preincubation; Ki determined from IC50 according to Cer et al.
log10(Ki) values for the compounds below.
Heads up, the numbers here are log10 of Ki in nM units.

INSERT INTO results (compound, target_desc, property_label, measurement) VALUES
  ('Nc1c(Oc2cccc(C(F)(F)F)c2)ncn(CC2(O)CCN(C(=O)[C@@H]3CCN(C(=O)c4sc(-c5ccc(C(F)(F)F)nc5)cc4F)C[C@H]3c3ccccc3)CC2)c1=O', 'USP7 (Homo sapiens, UniProt Q93009, C315A)', 'log10(Ki)', 1.08);

For the compound "COc1cc(Oc2ncn(C[C@@]3(O)CCN(C(=O)[C@@H]4CCN(Cc5cnc(C)cn5)C[C@H]4c4ccccc4)CC3(F)F)c(=O)c2N)ccc1Cl" , what log10(Ki) is on record? 1.57

For the compound "Cc1ccc(-c2nc(C)c(C(=O)N3CC[C@@H](C(=O)N4CCC(O)(Cn5cnc(Oc6ccc(Cl)c(F)c6)c(N)c5=O)CC4)[C@H](c4ccccc4)C3)s2)cn1" , what log10(Ki) is on record? 0.60

For the compound "Cc1nc(-c2ccc(N(C)C)nc2)sc1C(=O)N1CC[C@@H](C(=O)N2CCC(O)(Cn3cnc(Oc4ccc(F)cc4)c(N)c3=O)CC2)[C@H](c2ccccc2)C1" , what log10(Ki) is on record? 0.81

----------
log10(Ki) values for the compounds below.
Biological target: USP7 (Homo sapiens, UniProt Q93009, C315A)
Construct: 0.25 nM His-His-USP7 (aa208-560, |C315A|) was incubated with compound; His-His (N)
Assay: Inhibition of USP7 by Fluorescence Intensity (FLINT) readings, Ubiquitin-Rhodamine-110 substrate
Type: biochemical
Details: 0.25 nM His-His-USP7 (aa208-560), 60 minutes at 30° C. preincubation; Ki determined from IC50 according to Cer et al.
Structures can show the parent of a compound that is named as a salt.
Heads up, the numbers here are log10 of Ki in nM units.

Examples with their reported log10(Ki) follow.
INSERT INTO results (compound, measurement) VALUES
  ('COc1cc(Oc2ncn(CC3(O)CCN(C(=O)[C@@H]4CCNC[C@H]4c4ccccc4)CC3)c(=O)c2N)ccc1F [Example 17, hydrochloride]', 2.06),
  ('Cc1ccc(-c2sc(C(=O)N3CC[C@@H](C(=O)N4CCC(O)(Cn5cnc(Oc6ccc(F)cc6)c(N)c5=O)CC4)[C@H](c4ccccc4)C3)c3c2OCCO3)cn1 [Example 68]', 0.60),
  ('Nc1c(Oc2ccc(F)cc2)ncn(C[C@@]2(O)CCN(C(=O)[C@@H]3CCN(C(=O)c4sc(I)cc4F)C[C@H]3c3ccccc3)CC2(F)F)c1=O [Example 104]', 1.18),
  ('COc1cc(Oc2ncn(C[C@@]3(O)CCN(C(=O)[C@@H]4CCN(Cc5ccncn5)C[C@H]4c4ccccc4)CC3(F)F)c(=O)c2N)ccc1F [Example 220]', 1.99),
  ('COc1cc(Oc2ncnc(OC[C@@]3(O)CCN(C(=O)[C@@H]4CCN(C(=O)OC(C)(C)C)C[C@H]4c4ccccc4)CC3(F)F)c2N)ccc1F [Example 135]', 2.31);

For the compound Nc1c(Oc2ccc(F)cc2)ncn(CC2(O)CCN(C(=O)[C@@H]3CCN(C4(c5ccccc5F)COC4)C[C@H]3c3ccccc3)CC2)c1=O [Example 109] , what log10(Ki) is on record? 1.81

----------
Target: USP7 (Homo sapiens, UniProt Q93009, C315A)
Construct: 0.25 nM His-His-USP7 (aa208-560, |C315A|) was incubated with compound; His-His (N)
Test: Inhibition of USP7 by Fluorescence Intensity (FLINT) readings, Ubiquitin-Rhodamine-110 substrate
Assay type: biochemical
Conditions: 0.25 nM His-His-USP7 (aa208-560), 60 minutes at 30° C. preincubation; Ki determined from IC50 according to Cer et al.
// returns NO unless Ki is strictly below 20 nM, in which case YES

Could you please tell me whether Ki recorded for "Cc1nc(C2CCCCC2)sc1C(=O)N1CC[C@@H](C(=O)N2CCC(O)(Cn3cnc(Oc4ccc(F)cc4)c(N)c3=O)CC2)[C@H](c2ccccc2)C1" is less than 20 nM? YES

Could you please tell me whether Ki recorded for "Cc1cc(C)nc(CN2CC[C@@H](C(=O)N3CC[C@](O)(Cn4cnc(Oc5ccc(F)cc5)c(N)c4=O)C(F)(F)C3)[C@H](c3ccccc3)C2)n1" is less than 20 nM? NO

Could you please tell me whether Ki recorded for "Cc1nccc(CN2CC[C@@H](C(=O)N3CC[C@](O)(Cn4cnc(Oc5ccc(F)cc5)c(N)c4=O)C(F)(F)C3)[C@H](c3ccccc3)C2)n1" is less than 20 nM? NO

Could you please tell me whether Ki recorded for "CC(C)(C)OC(=O)N1CC[C@@H](C(=O)N2CCC(O)(Cn3cnc(Oc4ccccc4)c(N)c3=O)CC2)[C@H](c2ccccc2)C1" is less than 20 nM? NO

Could you please tell me whether Ki recorded for "Nc1c(Oc2ccc(F)cc2)ncn(C[C@@]2(O)CCN(C(=O)[C@@H]3CCN(Cc4ccnc(Cl)n4)C[C@H]3c3ccccc3)CC2(F)F)c1=O" is less than 20 nM? YES
